Field: inhibition spot diameter in the agar diffusion test. Provide a value for each of the molecules that follow.
System: Pseudomonas aeruginosa NCTC 10701
protocol: Agar diffusion test
Assay type: cell-based
assay-setup: concentration 100 μg/ml; P. aeruginosa NCTC 10701
Numbers only, in mm.

1. CC(=O)Oc1cccc(C(=O)N[C@@H](C)C(=O)N[C@@H](C(=O)N[C@@H]2C(=O)N3[C@@H]2SC(C)(C)[C@@H]3C(=O)O)c2ccccc2)c1OC(C)=O : 0

Dear reader, for each entry below, please note its inhibition spot diameter in the agar diffusion test.
1. CC(=O)Oc1cccc(C(=O)Nc2ccc(C(=O)N[C@@H](C(=O)N[C@@H]3C(=O)N4[C@@H]3SC(C)(C)[C@@H]4C(=O)O)c3ccccc3)cc2)c1OC(C)=O
2. CC1(C)S[C@@H]2[C@H](NC(=O)[C@H](N)c3ccccc3)C(=O)N2[C@H]1C(=O)O [Ampicillin, reference compound]
3. CC1(C)S[C@@H]2[C@H](NC(=O)[C@H](NC(=O)N3CCNC3=O)c3ccccc3)C(=O)N2[C@H]1C(=O)O [Azlocillin, reference compound]

1: 23; 2: 0; 3: 27

---

Tested on: Morganella morganii SBK3 (wild)
Format: cell-based
Field: Growth areas of siderophore indicator strains (diameter). Provide a value for each of the molecules that follow.

Observe how each entry below is paired with its result.
1) CC(=O)Oc1cccc(C(=O)NCCCC[C@H](NC(=O)c2cccc(OC(C)=O)c2OC(C)=O)C(=O)O)c1OC(C)=O : 38 mm
2) O=C(O)c1ccc(N=Cc2cccc(O)c2O)c(O)c1 : 21 mm

Dear reader, for each entry below, please note its Growth areas of siderophore indicator strains (diameter).
1. O=C(O)c1ccc(O)c(N=Cc2cccc(O)c2O)c1
2. O=C(O)c1cc(O)c(O)c(C=NNC(=O)c2cccc(O)c2O)c1

["20 mm", "24 mm"]

---

Field: inhibition spot diameter in the agar diffusion test. Provide a value for each of the compounds that follow.
Tested on: Pseudomonas aeruginosa ATCC 27853 (wild type)
protocol: Agar diffusion test
Assay type: cell-based
assay-setup: concentration 100 μg/ml; P. aeruginosa ATCC 27853
One number for each entry, in mm.

Observe how each entry below is paired with its result.
1) CC(=O)Oc1cccc(C(=O)NCCCC[C@H](NC(=O)c2cccc(OC(C)=O)c2OC(C)=O)C(=O)N[C@@H](C(=O)N[C@@H]2C(=O)N3[C@@H]2SC(C)(C)[C@@H]3C(=O)O)c2ccc(O)cc2)c1OC(C)=O : 22
2) CC(=O)Oc1cccc(C(=O)Nc2cc(NC(=O)c3cccc(OC(C)=O)c3OC(C)=O)cc(C(=O)N[C@@H](C(=O)N[C@@H]3C(=O)N4[C@@H]3SC(C)(C)[C@@H]4C(=O)O)c3ccccc3)c2)c1OC(C)=O : 19
3) CC1(C)S[C@@H]2[C@H](NC(=O)[C@H](NC(=O)N3CCNC3=O)c3ccccc3)C(=O)N2[C@H]1C(=O)O [Azlocillin, reference compound] : 19
4) CC1(C)S[C@@H]2[C@H](NC(=O)[C@H](N)c3ccccc3)C(=O)N2[C@H]1C(=O)O [Ampicillin, reference compound] : 0
5) COC(=O)Oc1cccc(C(=O)N(C)c2ccc(C(=O)N[C@@H](C(=O)N[C@@H]3C(=O)N4[C@@H]3SC(C)(C)[C@@H]4C(=O)O)c3ccccc3)cc2)c1OC(=O)OC : 21

Okay, next one:
// inhibition spot diameter in the agar diffusion test (Pseudomonas aeruginosa ATCC 27853 (wild type)) for CC(=O)Oc1cccc(C(=O)NCCCC[C@H](NC(=O)c2cccc(OC(C)=O)c2OC(C)=O)C(=O)N[C@@H](C(=O)N[C@@H]2C(=O)N3[C@@H]2SC(C)(C)[C@@H]3C(=O)O)c2ccccc2)c1OC(C)=O = 24

---

System: Pseudomonas aeruginosa NPS1 (plasmid-coded β-lactamase)
Assay type: cell-based
assay-setup: concentration 100 μg/ml; P. aeruginosa NPS 1
measured-property: inhibition spot diameter in the agar diffusion test (mm)
One number for each entry, in mm.

1) CC1(C)S[C@@H]2[C@H](NC(=O)[C@H](NC(=O)N3CCNC3=O)c3ccccc3)C(=O)N2[C@H]1C(=O)O [Azlocillin, reference compound] : 0
2) CC(=O)Oc1cccc(C(=O)N[C@@H](C)C(=O)N[C@@H](C(=O)N[C@@H]2C(=O)N3[C@@H]2SC(C)(C)[C@@H]3C(=O)O)c2ccccc2)c1OC(C)=O : 10

Dear reader, for each entry below, please note its inhibition spot diameter in the agar diffusion test.
1. CC(=O)Oc1cccc(C(=O)Nc2ccccc2C(=O)N[C@@H](C(=O)N[C@@H]2C(=O)N3[C@@H]2SC(C)(C)[C@@H]3C(=O)O)c2ccccc2)c1OC(C)=O
2. CC1(C)S[C@@H]2[C@H](NC(=O)[C@H](N)c3ccccc3)C(=O)N2[C@H]1C(=O)O [Ampicillin, reference compound]

[18, 0]

// inhibition spot diameter in the agar diffusion test (Pseudomonas aeruginosa NPS1 (plasmid-coded β-lactamase)) for CC(=O)Oc1cccc(C(=O)Nc2ccc(C(=O)N[C@@H](C(=O)N[C@@H]3C(=O)N4[C@@H]3SC(C)(C)[C@@H]4C(=O)O)c3ccccc3)cc2)c1OC(C)=O = 12

---

System: Pseudomonas aeruginosa ATCC 9027 (wild type)
protocol: Agar diffusion test
Assay type: cell-based
assay-setup: concentration 100 μg/ml; P. aeruginosa ATCC 9027
measured-property: inhibition spot diameter in the agar diffusion test (mm)
Give bare numbers, in mm.

1. CC(=O)Oc1cccc(C(=O)Nc2ccc(C(=O)N[C@@H](C(=O)N[C@@H]3C(=O)N4[C@@H]3SC(C)(C)[C@@H]4C(=O)O)c3ccccc3)cc2)c1OC(C)=O : 21

Dear reader, for each entry below, please note its inhibition spot diameter in the agar diffusion test.
1. CC1(C)S[C@@H]2[C@H](NC(=O)[C@H](NC(=O)N3CCNC3=O)c3ccccc3)C(=O)N2[C@H]1C(=O)O [Azlocillin, reference compound]
2. CC1(C)S[C@@H]2[C@H](NC(=O)[C@H](N)c3ccccc3)C(=O)N2[C@H]1C(=O)O [Ampicillin, reference compound]
3. CC(=O)Oc1cccc(C(=O)Nc2ccccc2C(=O)N[C@@H](C(=O)N[C@@H]2C(=O)N3[C@@H]2SC(C)(C)[C@@H]3C(=O)O)c2ccccc2)c1OC(C)=O
4. CC(=O)Oc1cccc(C(=O)N[C@@H](C)C(=O)N[C@@H](C(=O)N[C@@H]2C(=O)N3[C@@H]2SC(C)(C)[C@@H]3C(=O)O)c2ccccc2)c1OC(C)=O

15
0
18
19

---

Tested on: Proteus vulgaris 718 (wild)
Assay type: cell-based
assay-setup: Proteus vul. 718
Field: Growth areas of siderophore indicator strains (diameter). Provide a value for each of the compounds that follow.
Answers are plain numbers, in mm.

Observe how each entry below is paired with its result.
1) COC(=O)Oc1ccc(C=Nc2cccc(C(=O)O)c2)cc1OC(=O)OC : 35
2) COC(=O)Oc1ccc(C(=O)NN=C(C(=O)O)c2ccccc2)cc1OC(=O)OC : 20
3) O=C(O)c1cccc(N=Nc2ccc(O)c(O)c2)c1 [Substance 8, 3-(3,4-Dihydroxyphenylazo)benzoic Acid] : 20

Okay, next one:
// Growth areas of siderophore indicator strains (diameter) (Proteus vulgaris 718 (wild)) for COC(=O)Oc1ccc(C=Nc2cc(C(=O)O)ccc2O)cc1OC(=O)OC = 25

---

Test system: Pseudomonas aeruginosa KW 799/61 (penetration mutant)
Type: cell-based
assay-setup: concentration 100 μg/ml; P. aeruginosa KW799/61
Field: inhibition spot diameter in the agar diffusion test. Provide a value for each of the compounds that follow.
One number for each entry, in mm.

Observe how each entry below is paired with its result.
1) CC(=O)Oc1cccc(C(=O)Nc2ccc(C(=O)N[C@@H](C(=O)N[C@@H]3C(=O)N4[C@@H]3SC(C)(C)[C@@H]4C(=O)O)c3ccccc3)cc2)c1OC(C)=O [Substance 29] : 33
2) CC(=O)OC[C@H](NC(=O)c1cccc(OC(C)=O)c1OC(C)=O)C(=O)N[C@@H](C(=O)N[C@@H]1C(=O)N2[C@@H]1SC(C)(C)[C@@H]2C(=O)O)c1ccccc1 [Substance 32] : 32
3) CC(=O)Oc1cccc(C(=O)Nc2cc(NC(=O)c3cccc(OC(C)=O)c3OC(C)=O)cc(C(=O)N[C@@H](C(=O)N[C@@H]3C(=O)N4[C@@H]3SC(C)(C)[C@@H]4C(=O)O)c3ccccc3)c2)c1OC(C)=O [Substance 36] : 29
4) COC(=O)Oc1cccc(C(=O)N(C)c2ccc(C(=O)N[C@@H](C(=O)N[C@@H]3C(=O)N4[C@@H]3SC(C)(C)[C@@H]4C(=O)O)c3ccccc3)cc2)c1OC(=O)OC [Substance Na-37] : 35
5) CC(=O)Oc1cccc(C(=O)Nc2ccccc2C(=O)N[C@@H](C(=O)N[C@@H]2C(=O)N3[C@@H]2SC(C)(C)[C@@H]3C(=O)O)c2ccccc2)c1OC(C)=O [Substance 28] : 31
6) CC1(C)S[C@@H]2[C@H](NC(=O)[C@H](NC(=O)N3CCNC3=O)c3ccccc3)C(=O)N2[C@H]1C(=O)O [Azlocillin, reference compound] : 40
7) COC(=O)Oc1cccc(C(=O)N2COC[C@H]2C(=O)N[C@@H](C(=O)N[C@@H]2C(=O)N3[C@@H]2SC(C)(C)[C@@H]3C(=O)O)c2ccccc2)c1OC(=O)OC [Substance 30] : 33
8) CC(=O)Oc1cccc(C(=O)NCCCC[C@H](NC(=O)c2cccc(OC(C)=O)c2OC(C)=O)C(=O)N[C@@H](C(=O)N[C@@H]2C(=O)N3[C@@H]2SC(C)(C)[C@@H]3C(=O)O)c2ccccc2)c1OC(C)=O [Substance 31] : 37

Dear reader, for each entry below, please note its inhibition spot diameter in the agar diffusion test.
1. CC(=O)Oc1cccc(C(=O)N[C@@H](C)C(=O)N[C@@H](C(=O)N[C@@H]2C(=O)N3[C@@H]2SC(C)(C)[C@@H]3C(=O)O)c2ccccc2)c1OC(C)=O [Substance 27]
2. CC1(C)S[C@@H]2[C@H](NC(=O)[C@H](N)c3ccccc3)C(=O)N2[C@H]1C(=O)O [Ampicillin, reference compound]

37
41
